assay: P70S6K Enzyme Assay: P70S6K inhibitor compounds were diluted and plated in 96 well plates. A reaction mixture including the following components was then added to the compound plate to initiate the enzyme reaction; P70S6K (3 nM, T412E mutant, Millipore) was mixed with 24 μM ATP in an assay buffer containing 100 mM Hepes (pH 7.5), 5 mM MgCl2, 1 mM DTT, 0.015% Brij and 1 μM of the substrate peptide FITC-AHA-AKRRRLSSLRA-OH (derived from the S6 ribosomal protein sequence, FITC=fluorescein isothiocyanate, AHA=6-aminohexanoic acid). The reaction was incubated for 90 min at 25° C., before the addition of 10 mM EDTA to stop the reaction. The proportion of substrate and product (phosphorylated) peptide was analysed on a Caliper Life Sciences Lab Chip 3000, using a pressure of −1.4 psi, and upstream and downstream voltages of −3000 and −700 respectively. Product peaks were resolved before substrate peaks on the resulting chromatograms.
reported endpoint: IC50

- molecule: "O=C1CNc2ncnc(N3CCN(C(CN4CCCC4)c4ccc(F)c(Cl)c4)CC3)c2N1 (stereo unspecified)"
  reported endpoint: "IC50"
  value measured: "> 1000 nM"
